Test system: biotinyl-Val-oxazolone
test details: self-aminoacylation, catalytic enhancement (BVO) (fold over background); higher = more active; k-Seq, kA / k0A0; sequences stand for … in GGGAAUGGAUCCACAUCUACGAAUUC…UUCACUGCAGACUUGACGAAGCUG
This sample holds only a part of the variants without activity.
Measured self-aminoacylation of individual entries
// response body must contain only the number

Per the reported biotinyl-Val-oxazolone data, CCAAACUUCAAUCAAUCGGUC [Fam1B.1 aminoacylation ribozyme variant] has self-aminoacylation of 1.28

Per the reported biotinyl-Val-oxazolone data, AUUCACCUACGUCAUUGGGUG [Fam2.2 aminoacylation ribozyme variant] has self-aminoacylation of 1.51

Per the reported biotinyl-Val-oxazolone data, CAACACUUAAAGCAAUCGGUC [Fam1B.1 aminoacylation ribozyme variant] has self-aminoacylation of 0.909

Per the reported biotinyl-Val-oxazolone data, AAGUUUGCAAAUAGUCGCAAA [Fam3.1 aminoacylation ribozyme variant] has self-aminoacylation of 1.62

Others:
Per the reported biotinyl-Val-oxazolone data, AUUCACCUAUGUCAUCGGGUA [Fam2.2 aminoacylation ribozyme variant] has self-aminoacylation of 1.79

Per the reported biotinyl-Val-oxazolone data, GUACUUCAAACGAUCGGUCUG [Fam1A.1 aminoacylation ribozyme variant] has self-aminoacylation of 1.08
